Test system: Tetranychus urticae
Experiment: Acaricidal activity against Tetranychus urticae (two-spotted spider mite) assessed as mortality at 500 ppm
Assay type: functional
Details: Tetranychus urticae
Quick rule for you: mortality at 500 ppm at 90% or higher means condition met, lower means condition not met.

{"MOLECULE": "CC(=O)SCCC(CN(C)C)SC(C)=O (stereo unspecified)", "ASSIGNED CATEGORY": "condition met"}
{"MOLECULE": "CN(C)CC(CCSC(=O)c1ccccc1)SC(=O)c1ccccc1.Cl (stereo unspecified)", "ASSIGNED CATEGORY": "condition met"}
{"MOLECULE": "CN(C)C1CS[S+]([O-])C1.O=C(O)C(=O)O (stereo unspecified) [NEREISTOXIN MONOXIDE HYDROGEN OXALATE]", "ASSIGNED CATEGORY": "condition not met"}
{"MOLECULE": "CCOP(=O)(OCC)[C@]1(C#N)SC[C@@H](CN(C)C)CS1.O=C(O)C(=O)O", "ASSIGNED CATEGORY": "condition met"}
{"MOLECULE": "CN(C)CC1CS[S+]([O-])C1.O=C(O)C(=O)O (stereo unspecified)", "ASSIGNED CATEGORY": "condition met"}

Req: Say whether CNC(=S)SCCC(CN(C)C)SC(=S)NC (stereo unspecified) shows mortality at 500 ppm of 90% or more.
Resp: condition not met

Req: Say whether CCOC(=O)C1SCC(CN(C)C)CS1 (mixture of isomers) shows mortality at 500 ppm of 90% or more.
Resp: condition not met

Req: Say whether CC(C)NC(=O)SCCC(CN(C)C)SC(=O)NC(C)C (stereo unspecified) shows mortality at 500 ppm of 90% or more.
Resp: condition not met

Req: Say whether CN(C)CC1CSSC1.O=C(O)C(=O)O shows mortality at 500 ppm of 90% or more.
Resp: condition met

Req: Say whether CCN(CC)C(=O)[C@]1(C#N)SC[C@H](CN(C)C)CS1.O=C(O)C(=O)O shows mortality at 500 ppm of 90% or more.
Resp: condition met
